- systemTested: T1, Human full length B7-H3 (human, UniProt Q5ZPR3 29-534)
- T1 sequence: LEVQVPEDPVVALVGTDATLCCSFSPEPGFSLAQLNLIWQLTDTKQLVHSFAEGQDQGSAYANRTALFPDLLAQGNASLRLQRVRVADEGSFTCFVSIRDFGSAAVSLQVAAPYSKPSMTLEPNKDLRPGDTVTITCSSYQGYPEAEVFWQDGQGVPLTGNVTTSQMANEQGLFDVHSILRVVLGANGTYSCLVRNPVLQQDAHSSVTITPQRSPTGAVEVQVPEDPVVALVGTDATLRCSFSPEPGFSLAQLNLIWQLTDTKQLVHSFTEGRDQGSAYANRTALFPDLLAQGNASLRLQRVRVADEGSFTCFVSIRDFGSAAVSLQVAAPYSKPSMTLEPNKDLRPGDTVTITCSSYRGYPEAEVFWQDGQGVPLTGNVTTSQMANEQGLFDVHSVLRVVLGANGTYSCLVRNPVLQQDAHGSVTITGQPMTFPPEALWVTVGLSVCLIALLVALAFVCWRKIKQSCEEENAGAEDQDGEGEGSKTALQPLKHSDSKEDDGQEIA
- experimentalProtocol: cell-based or functional assay
Please go through the items and note down their EC50 nM H1650 (in vitro tumor cell cytotoxicity).
Quick note: give the figure in nM, leave out the unit.

Item: huAb3v2.5-ZT (antibody, human IgG1, kappa, L234A L235A, V domains shown, synthon ZT on interchain Cys) VH: EVQLVQSGAEVKKPGSSVKVSCKASGYTFSSYWMHWVRQAPGQGLEWIGLIHPESGSTNYNEMFKNRATLTVDRSTSTAYMELSSLRSEDTAVYYCAGGGRLYFDYWGQGTTVTVSS VL: DIVMTQSPLSLPVTPGEPASISCRSSQSLVHSNRDTYLRWYLQKPGQSPQLLIYKVSNRFSGVPDRFSGSGSGTDFTLKISRVEAEDVGVYYCSQSTHVPYTFGGGTKVEIKR | EC50 nM H1650 (in vitro tumor cell cytotoxicity): 0.95

Item: huAb3v2.6-YY (antibody, human IgG1, kappa, L234A L235A, V domains shown, synthon YY on interchain Cys) VH: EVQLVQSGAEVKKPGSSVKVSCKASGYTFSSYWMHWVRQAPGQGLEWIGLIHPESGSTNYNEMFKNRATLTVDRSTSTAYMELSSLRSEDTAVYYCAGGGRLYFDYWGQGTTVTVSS VL: DIVMTQSPLSLPVTPGEPASISCRSSQSLVHSNQDTYLRWYLQKPGQSPQLLIYKVSNRFSGVPDRFSGSGSGTDFTLKISRVEAEDVGVYYCSQSTHVPYTFGGGTKVEIKR | EC50 nM H1650 (in vitro tumor cell cytotoxicity): 0.72

Item: huAb3v2.6-TX (antibody, human IgG1, kappa, L234A L235A, V domains shown, synthon TX on interchain Cys) VH: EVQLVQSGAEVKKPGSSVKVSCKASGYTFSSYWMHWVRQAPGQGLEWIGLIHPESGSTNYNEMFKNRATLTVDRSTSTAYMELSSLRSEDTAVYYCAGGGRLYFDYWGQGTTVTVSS VL: DIVMTQSPLSLPVTPGEPASISCRSSQSLVHSNQDTYLRWYLQKPGQSPQLLIYKVSNRFSGVPDRFSGSGSGTDFTLKISRVEAEDVGVYYCSQSTHVPYTFGGGTKVEIKR | EC50 nM H1650 (in vitro tumor cell cytotoxicity): 0.47

Item: huAb13v1-AAD (antibody, human IgG1, kappa, L234A L235A, V domains shown, synthon AAD on interchain Cys) VH: EVQLQESGPGLVKPSETLSLTCAVTGYSITSGYSWHWIRQFPGNGLEWMGYIHSSGSTNYNPSLKSRISISRDTSKNQFFLKLSSVTAADTAVYYCAGYDDYFEYWGQGTTVTVSS VL: DIQMTQSPSSLSASVGDRVTITCKASQNVGFNVAWYQQKPGKSPKALIYSASYRYSGVPSRFSGSGSGTDFTLTISSLQPEDFAEYFCQQYNWYPFTFGQGTKLEIKR | EC50 nM H1650 (in vitro tumor cell cytotoxicity): 0.21

Item: huAb13v1-KZ (antibody, human IgG1, kappa, L234A L235A, V domains shown, synthon KZ on interchain Cys) VH: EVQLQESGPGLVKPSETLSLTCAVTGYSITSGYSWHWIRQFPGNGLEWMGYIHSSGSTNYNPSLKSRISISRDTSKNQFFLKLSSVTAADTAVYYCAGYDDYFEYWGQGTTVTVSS VL: DIQMTQSPSSLSASVGDRVTITCKASQNVGFNVAWYQQKPGKSPKALIYSASYRYSGVPSRFSGSGSGTDFTLTISSLQPEDFAEYFCQQYNWYPFTFGQGTKLEIKR | EC50 nM H1650 (in vitro tumor cell cytotoxicity): 179
